- tested-on: UniProt:P54578
- Sequence (P54578 whole entry, looked up): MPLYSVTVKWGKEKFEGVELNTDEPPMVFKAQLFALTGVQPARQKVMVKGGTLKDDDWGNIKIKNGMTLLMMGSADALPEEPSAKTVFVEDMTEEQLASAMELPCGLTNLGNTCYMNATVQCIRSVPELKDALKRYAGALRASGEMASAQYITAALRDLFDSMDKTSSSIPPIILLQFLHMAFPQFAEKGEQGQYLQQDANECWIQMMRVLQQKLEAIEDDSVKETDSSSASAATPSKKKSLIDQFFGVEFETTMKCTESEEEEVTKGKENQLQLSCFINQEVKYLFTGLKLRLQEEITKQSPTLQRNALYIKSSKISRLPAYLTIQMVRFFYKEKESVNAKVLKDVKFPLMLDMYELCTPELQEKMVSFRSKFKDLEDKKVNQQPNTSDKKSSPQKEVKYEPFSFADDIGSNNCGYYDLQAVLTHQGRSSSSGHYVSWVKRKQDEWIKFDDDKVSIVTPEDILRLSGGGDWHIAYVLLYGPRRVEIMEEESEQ
- assay-info: Usp14 inhibition assay (Example 57B, B-series compounds)
- Format: biochemical
- condition-details: IC50 class; average value from a minimum of two experimental determinations
- From the text: Example 57B: Usp14 Inhibition Assay The IC50 values in the Table below represent the average value from a minimum of two experimental determinations.
measurement-kind: IC50

In: I am curious: what IC50 value has been reported for Cc1cc(C(=O)CN2C3CCCC2CC3)c(C)n1-c1ccc(C#N)cc1 [Example 69B] ?
Out: 0.05 to 0.5 µM

In: # IC50 lookup, item Cc1c(C(=O)CN2C3CCC2[C@@H](O)C3)cc(C(C)(C)C)n1-c1ccc(C#N)cc1 (mixture of isomers) [Example 113B]
Out: 0.05 to 0.5 µM

In: Requested field: IC50. Item: Cc1cc(C(=O)CN2[C@@H]3CC[C@H]2[C@@H](C)C3)c(C)n1-c1ccc(C#N)cc1 (racemic) [Example 100B]
Out: > 0.5 µM

In: What measured IC50 goes with Cc1cc(C(=O)CN2[C@H]3CCC[C@@H]2[C@@H](O)C3)c(C)n1-c1ccc(C#N)cc1 (racemic) [Example 83B] ?
Out: 0.05 to 0.5 µM

In: Given the molecule Cc1c(C(=O)CN2[C@@H]3CC[C@@H]2[C@@H](O)C3)cc(/C=C/CN)n1-c1ccc(C#N)cc1 (racemic) [Example 156B] , what is its reported IC50?
Out: < 0.05 µM

In: Suppose we examine the molecule Cc1nc(Cc2cc(C(=O)CN3C4CCC3[C@@H](O)C4)c(C)n2-c2ccc(C#N)cc2)cs1 (mixture of isomers) [Example 41B] ; what IC50 value has been reported?
Out: < 0.05 µM

In: So what's the measured IC50 for this one? Cc1c(C(=O)CN2C3CCC2[C@@H](O)C3)c(C(F)(F)F)c(C)n1-c1ccc(C#N)cc1 (mixture of isomers) [Example 79B]
Out: > 0.5 µM

In: What IC50 value was documented for this molecule, Cc1cc(C(=O)CN2C3CCCC2CCC3)c(C)n1-c1ccc(C#N)cc1 [Example 87B] ?
Out: 0.05 to 0.5 µM

In: GET /values?readout=IC50&item= Cc1cc(C(=O)CN2C3CC4CC(C3)CC2C4)c(C)n1-c1ccc(C#N)cc1 [Example 80B]
Out: < 0.05 µM

In: For the molecule Cc1c(C(=O)CN2C3CCC2CC3)c(C)n(-c2ccc(C#N)cc2)c1-c1ccc(C#N)cc1 [Example 16B] , what IC50 is on record?
Out: > 0.5 µM

In: Given COC1C[C@H]2CC[C@H](C1)N2CC(=O)c1cc(C)n(-c2ccc(C#N)cc2)c1C (stereo partly shown) [Example 88B] , state its recorded IC50.
Out: 0.05 to 0.5 µM

In: Request the reported IC50 associated with Cc1c(C(=O)CN2C3CCC2CC3)c(C)n(-c2ccc(C#N)cc2)c1/C=C/CCS(C)(=O)=O [Example 32B]
Out: 0.05 to 0.5 µM

In: Name the recorded IC50 for Cc1c(C(=O)CN2C3CCC2[C@@H](O)C3)c(Cl)c(CCCCC#N)n1-c1ccc(C#N)c(F)c1 (mixture of isomers) [Example 40B] .
Out: < 0.05 µM

In: Any idea what its IC50 is? The molecule is Cc1ncc(-c2cc(C(=O)CN3[C@@H]4CC[C@H]3[C@@H](O)C4)c(C)n2-c2ccc(C#N)cc2)s1 (racemic) [Example 147B]
Out: 0.05 to 0.5 µM

In: // query IC50 value for entry Cc1c(C(=O)CN2C3CCC2[C@@H](O)C3)cc(C2CC2)n1-c1ccc(C#N)cc1 (mixture of isomers) [Example 98B]
Out: 0.05 to 0.5 µM

In: Could you share which IC50 value was measured for Cc1c(C(=O)CN2[C@@H]3CC[C@@H]2[C@@H](O)C3)cc(CC2CCOCC2)n1-c1ccc(C#N)cc1 (racemic) [Example 44B] ?
Out: < 0.05 µM

In: Reported IC50, molecule Cc1c(C(=O)CN2C3CCC2[C@H](O)C3)cc(C(C)CCS(C)(=O)=O)n1-c1ccc(C#N)cc1 (mixture of isomers) [Example 11B] : ____
Out: > 0.5 µM

In: Report IC50 for Cc1c(C(=O)CN2C3CCC2C(O)C3)cc([C@@H]2C[C@H]2C)n1-c1ccc(C#N)cc1 (mixture of isomers) [Example 142B] please.
Out: 0.05 to 0.5 µM

In: Requested field: IC50. Item: Cc1c(Cl)c(C(=O)CN2C3CCC2[C@@H](O)C3)c(C)n1-c1ccc(C#N)cc1 (mixture of isomers) [Example 77B]
Out: 0.05 to 0.5 µM

In: Suppose we examine the molecule Cc1c(C(=O)CN2[C@H]3CC[C@@H]2[C@@H](O)C3)cc(CC2(Cl)CCC2)n1-c1ccc(C#N)cc1 (racemic) [Example 157B] ; what IC50 value has been reported?
Out: 0.05 to 0.5 µM

In: What does the data say about its IC50? Entry: Cc1c(C(=O)CN2C3CCC2[C@@H](O)C3)cc(C[C@H]2C[C@H](C#N)C2)n1-c1ccc(C#N)cc1 (mixture of isomers) [Example 45B]
Out: < 0.05 µM

In: Field request: IC50 | item: Cc1cc(C(=O)CN2C3CCCC2CC(O)C3)c(C)n1-c1ccc(C#N)cc1 (stereo not shown) [Example 85B]
Out: 0.05 to 0.5 µM

In: Item under review: Cc1c(F)c(C(=O)CN2[C@@H]3CC[C@H]2[C@@H](C)C3)c(C)n1-c1ccc(C#N)cc1 (racemic) [Example 101B] . Reported IC50?
Out: 0.05 to 0.5 µM

In: Consider the molecule shown here: Cc1c(C(=O)CN2C3CCC2[C@@H](O)C3)cc(C2CC(F)C2)n1-c1ccc(C#N)cc1 (mixture of isomers) [Example 132B] What is its recorded IC50?
Out: < 0.05 µM

In: Tell me the measured IC50 of Cc1c(C(=O)CN2C3CCC2C(O)C3)cc([C@@H](C)C2CCC2)n1-c1ccc(C#N)cc1 (mixture of isomers) [Example 150B] , please.
Out: 0.05 to 0.5 µM

In: What does the data say about its IC50? Entry: Cc1cc(C(=O)CN2[C@@H]3CC[C@H]2[C@](O)(C(F)(F)F)C3)c(C)n1-c1ccc(C#N)cc1 (racemic) [Example 73B]
Out: > 0.5 µM

In: Returns the measured IC50 for the input molecule. Input: Cc1c(C(=O)CN2[C@@H]3CC[C@H]2[C@@H](C)C3)cc(CC2COC2)n1-c1ccc(C#N)cc1 (racemic) [Example 53B]
Out: < 0.05 µM

In: Report IC50 for Cc1c(C(=O)CN2C3CCC2[C@@H](O)C3)cc(CCCC2(C)COC2)n1-c1ccc(C#N)cc1 (mixture of isomers) [Example 42B] please.
Out: < 0.05 µM
